Hey, just so you know, these numbers are from the nanobody polyreactivity screen of Harvey et al. (2022).

# Assay Name: yeast display, Sf9 membrane polyspecificity reagent, FACS + sequencing; frameworks hold sequencing errors
Endpoint Label: polyreactivity (PSR sort gate)

Worked set:
QVQLVESGGGLVQAGGSLRISCAASGSIFGYYAMGWYRHSPGTERELVAAISWSDGSTYYADSVKGRFTISRDNAKNTVYLQMNSLKPEDTAVYYCAARFTPYITSDDGHYDYWGQGTQVTVSS low polyreactivity
QVQLVESGGGLVQAGGSLRLSCAASGRTFTFYTMGWYRQAPGKERELVARITGGGSTYYADSVKGRFTISRDNAKNTVYLQMNSLKPEDTAVYYCAAASGTKRLYRGTRGDYWGQGTQVTVSS low polyreactivity
QVQLEESGGGLVQAGGSLRLSCAASGRIFYGNSMGWYRQAPGKERELVAAISKRGGSTYYADSVKGRFTISRDNAKNTVYLQMNSLKPEDTAVYYCAASYPTRAWEYDYWGQGTQVTVAS high polyreactivity
QVQLVESGGGLVHAGGSLRLSCAASGFIFPGNAMGWYIQAPGKERDLVAAISNSGSRTYYADSVKGRFTISRDNAKNTVYLQMISLKPEDTAVYYCNADVHNRGWPYDYWGQGTQVTVSS low polyreactivity

So for `QVQLVESGGGLVQAGGSLRLSCDASGRTFDVYTKGWYRQAPGKERELVDANNGGGSTYYADSVKGRFTISRDNAKNTVYLQMNSLKPEDPAVFYCAAKFRAGRSSYRGSPRYDSWGQGTHVTVSS` , the logged polyreactivity (PSR sort gate) turned out to be high polyreactivity

---

# Assay Name: yeast display, Sf9 membrane polyspecificity reagent, FACS + sequencing; frameworks hold sequencing errors
Endpoint Label: polyreactivity (PSR sort gate)

Recorded results for 4 sequences are shown here.
QVQLVESGGGLVQAGGSLRLSCAASGFIFDRYDMGWYRQAPGKERELVAAISYSGGSTYYADSVKGRFSISRDNAKNTVYFQMNSLKPEDTAVYYCATRVGYFYYEYSYDYWGQGTQVTVSS low polyreactivity
QVQLVESGGGLVQAGGSLRLSSDASGFIIANNALGWYRQAPVKERELVAAISRSGGRTYYADSVKGRFTISRDNGKKTVYLQMNSLKTEDTAVYYCVADRTDTSNYWGQGTQVTVSS high polyreactivity
QVQLVESGGGLVQAGGSLRLSSAASGITYTPNAMGSYRQAPGKEREFVAAISVSGGSTYYADSVKGRFTISRDNAKYTVYLQMNSLKPEDTAVYYCATDFRRYAAKLYRYYYWGLGTQVTVSS high polyreactivity
QVQLVESGGGLVQAGGSLRLSCAASGHIFFYYTMGWYRQAPGKERELVAGIPIGGSTNYADSVKGRFTISRDNAKNTVYLQMNSLKPVDTAVYYFNVVKYVYIYSFWEYYYWGQGTQVTVSS low polyreactivity

The value of polyreactivity (PSR sort gate) measured for the sequence `QVQLVESGGGLVQAGGSLRLSCAASGSTSTYNAMGWYRQAPGTERELVAAITESGGSTYYADSVKGRFTISRDNAKNTVYLQMNSLKPEDTAVYYCAADQTYTYDYWGQGTQVTVSS` turned out to be low polyreactivity

---

# Assay Name: yeast display, Sf9 membrane polyspecificity reagent, FACS + sequencing; frameworks hold sequencing errors
Endpoint Label: polyreactivity (PSR sort gate)

QVQLVESGGGLVQAGGSLRLSCAASGRIFWINAMGWYRQAPGKERELVAAITTDGGTTYYADSVKGRFTISRDNAKNTVYLQMNSLKPEDTAVYYCAADAAGQYWWQTYDYWGQGTQVTVSS high polyreactivity
QVQLVESGGGLVQAGGSLRLSCTASGTIVPVYAMGWYRQAPGKERELVADITYTTGSTYYAVSVKGRFTISRENAKNSVYLQMNSLKPEDTAVYYCAKDFGFQSDSWGQGTQVTVSS low polyreactivity
QVQLVESGGGLVQAGGSLRLSCAASGGTFFYNAMGWYRQAPGKERELVAAINGGTSTNYADSVKGRFTISRDNAKNTVYLQMNSLKPEDTAVYYCAAVYRRLGRYDWYDYWGQGTQVTVSS low polyreactivity
QVQLVESGGGLVQAGGSLRLSCAASGIIFKPYAMGWYRPAPGKERQLVAAITVNGGTTYYADSVKGRFTISRDNAKKTVNVQMNSLKPEDPAFYYCNRGRPGGPSWYHYDYWGQGTEVTVSS high polyreactivity

Now for a further sequence.
Entry `QVQLVESGGGLVQAGGSLRLSCAASGSTFPYNTMGWYRQAHGKEREFVAAITGDGGTTYYADSVKGRFTISRDNAKNTVYLQMNSLKPEDTAVYYCAVPYPAEGYGGDYWGQGTQGTVSS` — recorded polyreactivity (PSR sort gate) = low polyreactivity
